Test system: K4 kissing-loop RNA reporter;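 further: bound reporter read as fluorescence of individual clusters on recovered sequencing chips by microscopy, with normalized cluster intensities fitted with a binding model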
experiment-summary: apparent KD of K4 kissing-loop reporter; higher = weaker reporter binding
setup-conditions: Eterna round: R107; input ligand: none
Quick list: apparent KD of K4 kissing-loop reporter per entry.
Form field: result (number plus unit)

Here is how some sequences turned out for apparent KD of K4 kissing-loop reporter.
entry-sequence: AGGAUGUAGUGAUGUUAUAUAAGAAGUAAACGAGGACCGGUACGGCCGCCACUCGAAGCGGCUACUAGCGCGCCGCGAGGCGCGC [ExTryptoA.Cb]
apparent KD of K4 kissing-loop reporter: 0.958 µM
--
entry-sequence: GCGAAAAGCAAAACGAGUGAUGUUCGAAAACGAGGACCGGUACGGCCGCCACUCGAAAACGUCUGCGUGGGAAACUAUGUAGAUG [SS Tryptophan A - 1]
apparent KD of K4 kissing-loop reporter: 0.698 µM

Query sequence follows.
Sample GCCGUCCGGUCGCAAGACCGGACAGCCGAUACCAGCGCGAAGGCGCGCCCUUGGCAGCGGCACCGAGUGAUGUUCGGUCAGGCGG [#2 Same State - Theophylline A Attempt #2 (HarryS)] ; apparent KD of K4 kissing-loop reporter observed: 0.173 µM
